# procedure_details: in vitro
# Type: in vitro ADME, mouse
# test_parameters: C57BL/6, mouse, microsomes; Table S22; intrinsic clearance calculated from microsomal metabolism data
measurement_label: log10 microsomal CLint (log10 of the value in µL/min/mg)
A value of 2 here means microsomal CLint of 100 in µL/min/mg, since values are log10.

Enquiry: Which measured log10 microsomal CLint value corresponds to CC(=O)OC1C2OC2C(C)(O)C(=O)C(C)CC2OC2C2C3OC3(C)C(C)C3C(Cc4ccccc4)NC(=O)C132 (centres unmarked) ?
Return: 1.57

Enquiry: Which log10 microsomal CLint reading was recorded for the molecule CC(=O)OC1C2OC2C(C)(O)C(=O)C(C)CC=CC2C3OC3(C)C(C)C3C(Cc4ccccc4)NC(=O)C213 (centres unmarked) ?
Return: 1.99

Enquiry: // log10 microsomal CLint lookup, key: CC1=C(C)C2C(Cc3ccccc3)NC(=O)C23C(O)C2OC2C(C)(O)C(=O)C(C)CC=CC3C1O (centres unmarked)
Return: 1.42

Enquiry: Could you share which log10 microsomal CLint value was measured for CC1CC=CC2C3OC3(C)C(C)C3C(Cc4ccccc4)NC(=O)C23C(O)C2OC2C(C)C1=O (centres unmarked) ?
Return: 2.01

Enquiry: Quick one: log10 microsomal CLint of `CC(=O)O[C@@H]1/C=C/[C@@](C)(O)C(=O)[C@@H](C)C/C=C/[C@H]2[C@H](O)C(C)=C(C)[C@H]3[C@H](Cc4ccccc4)NC(=O)[C@@]123` ?
Return: 1.94

Enquiry: Item under review: CC1CC=CC2C3OC3(C)C(C)C3C(Cc4cccc(Br)c4)NC(=O)C23C(O)C2OC2C(C)(O)C1=O (centres unmarked) . Reported log10 microsomal CLint?
Return: 1.78

Enquiry: log10 microsomal CLint for C#CCCC1(CCC(=O)OC2C(=C)C(C)C3C(Cc4ccccc4)NC(=O)C34C2C=CCC(C)C(=O)C(C)(O)C2OC2C4OC(C)=O)N=N1 (centres unmarked) ?
Return: 3.01

Enquiry: Please report the recorded log10 microsomal CLint for C[C@H]1C/C=C/[C@H]2[C@@H]3O[C@]3(C)[C@@H](C)[C@H]3[C@H](Cc4ccccc4Br)NC(=O)[C@]32C(=O)C[C@@H](O)[C@@](C)(O)C1=O [Compound 21, o-bromo-19-hydroxy-21-oxocytochalasin Q] .
Return: 2.09

Enquiry: Please give the measured log10 microsomal CLint for this molecule: CC(=O)OC1C2OC2C(C)(O)C(=O)C(C)CC=CC2C3OC3(C)C(C)C3C(Cc4ccccc4)N(C(C)=O)C(=O)C213 (centres unmarked)
Return: 2.75

Enquiry: // query log10 microsomal CLint value for entry CC1=C(C)C2C(Cc3cccc(Cl)c3)NC(=O)C23C(O)C2OC2C(C)(O)C(=O)C(C)CC=CC3C1O (centres unmarked)
Return: 1.59
